ASSAYED_TARGET: RORγ/γt (Mus musculus, UniProt P51450, T352K)
Sequence (P51450 with tags, fused parts or gaps T352K): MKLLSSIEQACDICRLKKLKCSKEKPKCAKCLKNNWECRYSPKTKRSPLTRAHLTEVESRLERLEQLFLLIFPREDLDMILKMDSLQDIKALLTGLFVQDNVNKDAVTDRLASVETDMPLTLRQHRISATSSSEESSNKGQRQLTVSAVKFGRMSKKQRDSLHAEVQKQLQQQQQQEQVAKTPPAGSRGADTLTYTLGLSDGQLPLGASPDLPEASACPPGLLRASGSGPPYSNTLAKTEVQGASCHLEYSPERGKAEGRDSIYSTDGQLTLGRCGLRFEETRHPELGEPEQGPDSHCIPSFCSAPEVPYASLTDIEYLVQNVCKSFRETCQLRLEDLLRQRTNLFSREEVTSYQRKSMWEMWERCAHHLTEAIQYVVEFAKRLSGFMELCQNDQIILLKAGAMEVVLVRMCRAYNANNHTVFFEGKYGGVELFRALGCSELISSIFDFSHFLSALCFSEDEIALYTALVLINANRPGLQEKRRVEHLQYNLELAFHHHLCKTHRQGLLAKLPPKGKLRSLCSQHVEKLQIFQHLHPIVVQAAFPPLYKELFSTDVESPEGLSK
TEST_DETAILS: RORγ/γt-luc reporter S2 cell assay / HTS (firefly luciferase)
SETTINGS: RORγ/γt HTS concentration response curve class
EXPERIMENTAL_READOUT: Curve Class
Number, no unit, nothing else.

# example entries with known answers
{"columns": ["CHEMICAL_SMILES", "Curve Class"],
 "data": [
  ["CCOC(=O)[C@@H]1[C@H]2COc3cc(OC)ccc3[C@@H]2N2C(=O)N(c3ccc(Cl)cc3)C(=O)[C@@]12C", "−2.1"],
  ["CCOC(=O)[C@@H]1[C@H]2COc3ccc(Br)cc3[C@H]2N2C(=O)N(c3ccc(C)cc3)C(=O)[C@]12C", 4],
  ["CCOC(=O)[C@@H]1[C@H]2COc3cc(OC)ccc3[C@@H]2N2C(=O)N(c3cccc(C)c3)C(=O)[C@@]12C", "−3"],
  ["CCOC(=O)[C@@H]1[C@H]2COc3cc(OC)ccc3[C@@H]2N2C(=O)N(c3ccc(C(F)(F)F)cc3)C(=O)[C@]12C", 4],
  ["CCOC(=O)[C@@H]1[C@H]2COc3ccccc3[C@@H]2N2C(=O)N(c3ccc(Cl)cc3)C(=O)[C@@]12C", "−3"],
  ["CCOC(=O)[C@@H]1[C@H]2COc3ccccc3[C@@H]2N2C(=O)N(c3cccc(Cl)c3)C(=O)[C@@]12C", "−3"],
  ["CCOC(=O)[C@@H]1[C@H]2COc3cc(OC)ccc3[C@@H]2N2C(=O)N(c3ccc(Br)cc3)C(=O)[C@@]12C", "−2.1"],
  ["CCOC(=O)[C@@H]1[C@H]2COc3ccccc3[C@@H]2N2C(=O)N(c3ccc(OC)cc3)C(=O)[C@@]12C", 4],
  ["CCOC(=O)[C@@H]1[C@H]2COc3cc(OC)ccc3[C@H]2N2C(=O)N(c3ccc(C(F)(F)F)cc3)C(=O)[C@@]12C", 4],
  ["CCOC(=O)[C@@H]1[C@H]2COc3ccc(Br)cc3[C@@H]2N2C(=O)N(c3ccc(C(F)(F)F)cc3)C(=O)[C@]12C", 4]
]}

Query block: So what does the record say about Curve Class for CCOC(=O)[C@@H]1[C@H]2COc3ccccc3[C@H]2N2C(=O)N(c3ccccc3)C(=O)[C@]12C ?
Result block: 4

Query block: Another compound to look at: CCOC(=O)[C@@H]1[C@H]2COc3ccc(Br)cc3[C@@H]2N2C(=O)N(c3ccc(Br)cc3)C(=O)[C@]12C
Result block: 4

Query block: Okay, and CCOC(=O)[C@@H]1[C@H]2COc3cc(OC)ccc3[C@@H]2N2C(=O)N(c3ccc(OC)cc3)C(=O)[C@]12C ?
Result block: 4

###

ASSAYED_TARGET: RORγ/γt (Mus musculus, UniProt P51450, T352K)
TEST_DETAILS: RORγ/γt-luc reporter S2 cell assay / HTS (firefly luciferase)
The compounds listed here are annotated with their log10 of AC50.
Response schema: value (number) is log10 of AC50 in units of µM.

Consider the worked cases shown below.
{"columns": ["COMPOUND", "VAL"],
 "data": [
  ["CCOC(=O)[C@@H]1[C@H]2COc3ccc(Br)cc3[C@H]2N2C(=O)N(c3ccc(Cl)cc3)C(=O)[C@@]12C [MLS001066313-01]", -1.35],
  ["CCOC(=O)[C@@H]1[C@H]2COc3ccc(Br)cc3[C@@H]2N2C(=O)N(c3ccccc3)C(=O)[C@]12C [MLS001066242-01]", -1.65],
  ["CCOC(=O)[C@@H]1[C@H]2COc3cc(OC)ccc3[C@@H]2N2C(=O)N(c3ccc(Br)cc3)C(=O)[C@@]12C [MLS001066318-01]", 0.90],
  ["CCOC(=O)[C@@H]1[C@H]2COc3cc(OC)ccc3[C@H]2N2C(=O)N(c3cccc(Cl)c3)C(=O)[C@@]12C [MLS001066311-01]", 1.00],
  ["CCOC(=O)[C@@H]1[C@H]2COc3ccccc3[C@@H]2N2C(=O)N(c3ccc(Cl)cc3)C(=O)[C@@]12C [MLS001066523-01]", 1.20]
]}

Query block: # input compound: CCOC(=O)[C@@H]1[C@H]2COc3cc(OC)ccc3[C@@H]2N2C(=O)N(c3ccc(C)cc3)C(=O)[C@@]12C [MLS001066267-01] ; wanted: its log10 of AC50
Result block: 0.70

Query block: Next up: CCOC(=O)[C@@H]1[C@H]2COc3ccc(Br)cc3[C@H]2N2C(=O)N(c3cccc(F)c3)C(=O)[C@]12C [MLS001066046-01]
Result block: -1.90

Query block: Can you check CCOC(=O)[C@@H]1[C@H]2COc3cc(OC)ccc3[C@H]2N2C(=O)N(c3cccc(Cl)c3)C(=O)[C@]12C [MLS001066301-01] next?
Result block: -0.20

Query block: Repeat for the following compound: CCOC(=O)[C@@H]1[C@H]2COc3ccccc3[C@@H]2N2C(=O)N(c3cccc(Cl)c3)C(=O)[C@@]12C [MLS001066276-01]
Result block: 1.25

Query block: Another: CCOC(=O)[C@@H]1[C@H]2COc3ccccc3[C@@H]2N2C(=O)N(c3ccc(F)cc3)C(=O)[C@@]12C [MLS001066483-01]
Result block: 1.10

Query block: Next entry: CCOC(=O)[C@@H]1[C@H]2COc3ccccc3[C@H]2N2C(=O)N(c3ccc(F)cc3)C(=O)[C@]12C [MLS001066503-01]
Result block: 0.40

Query block: Also CCOC(=O)[C@@H]1[C@H]2COc3ccc(Br)cc3[C@@H]2N2C(=O)N(c3ccc(Br)cc3)C(=O)[C@]12C [MLS001066244-01] ?
Result block: -2.25

Query block: Also need CCOC(=O)[C@@H]1[C@H]2COc3ccc(Br)cc3[C@@H]2N2C(=O)N(c3ccc(C(F)(F)F)cc3)C(=O)[C@]12C [MLS001066035-01] , thanks.
Result block: 0.60
